Ref: patent US20260297121A1

Record form. Attribute: IC50. Fill in for each entry.
- System: PC3
- assayMethodText: IC50 in PC3 cells
- Type: cell-based
- assayContext: Homo sapiens, PC-3, read-out: IC50 PC2, Table 2; head prints PC2, text PC3
The answer should read as a number with its unit following.

INPUT: So what's the measured IC50 for this one? COc1cc2cc(C(=O)NCCON=C([C@@H](O)[C@@H](C)O)[C@@H](OC)[C@@H]3Cc4cc5cc(O[C@H]6C[C@@H](O[C@H]7C[C@@H](O)[C@H](O)[C@@H](C)O7)[C@H](O)[C@@H](C)O6)c(C)c(O)c5c(O)c4C(=O)[C@H]3O[C@H]3C[C@@H](O[C@H]4C[C@@H](O[C@H]5C[C@](C)(O)[C@H](O)[C@@H](C)O5)[C@@H](O)[C@@H](C)O4)[C@H](O)[C@@H](C)O3)[nH]c2cc1OC [YL-B158]
OUTPUT: 300 nM

INPUT: Next compound: CO[C@H](C(=NOCCNC(=O)c1[nH]c2ccc(Cl)cc2c1-c1cnn(C)c1)[C@@H](O)[C@@H](C)O)[C@@H]1Cc2cc3cc(O[C@H]4C[C@@H](O[C@H]5C[C@@H](O)[C@H](O)[C@@H](C)O5)[C@H](O)[C@@H](C)O4)c(C)c(O)c3c(O)c2C(=O)[C@H]1O[C@H]1C[C@@H](O[C@H]2C[C@@H](O[C@H]3C[C@](C)(O)[C@H](O)[C@@H](C)O3)[C@@H](O)[C@@H](C)O2)[C@H](O)[C@@H](C)O1 [YL-C102]
OUTPUT: 43 nM
